Measured values drawn from patent US11787780B2 for this set.

# TARGET: glucocorticoid receptor (GR) recombinant ligand binding domain (LBD) (Homo sapiens (Human), UniProt P04150)
# Sequence (P04150 524-758): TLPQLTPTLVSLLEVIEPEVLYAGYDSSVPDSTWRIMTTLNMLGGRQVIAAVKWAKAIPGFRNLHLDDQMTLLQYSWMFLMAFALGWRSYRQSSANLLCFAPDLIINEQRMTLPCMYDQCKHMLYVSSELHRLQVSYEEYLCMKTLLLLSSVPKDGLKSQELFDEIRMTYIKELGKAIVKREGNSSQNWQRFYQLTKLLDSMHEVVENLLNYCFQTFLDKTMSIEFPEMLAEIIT
# ASSAY PROTOCOL: GR binding fluorescence polarisation (FP) assay
# EXPERIMENTAL SETUP: displacement of fluorescently tagged ligand
pIC50: −log10 of the molar value.
READOUT KIND: pIC50

• CCCn1cc(S(=O)(=O)N2C3CC2CN(c2cc4cnn(-c5ccc(F)cc5)c4cc2C)C3)cn1 = 6.82
• Cc1cc2c(cnn2-c2ccc(=O)n(C(F)F)c2)cc1C1(Cc2ccccc2)CCN(S(=O)(=O)c2cnn(C)n2)C1 (stereo not drawn) = 7.26
• Cc1cc2c(cnn2-c2ccc(=O)n(C)c2)cc1C1(Cc2ccccc2)CCN(S(=O)(=O)c2cn(C)cn2)C1 (stereo not drawn) = 7.21

1: CCCn1cc(S(=O)(=O)N2CCN(c3ccc4c(cnn4-c4ccc(F)cc4)n3)CC23CC3)cn1
2: Cc1cc2c(cnn2-c2ccc(F)cc2)cc1N1CCN(S(=O)(=O)c2cnn(CC(F)(F)F)c2)C2(CC2)C1
3: C[C@@H]1CN(S(=O)(=O)c2cnn(C)c2)CCN1c1ccc2c(cnn2-c2ccc(F)cc2)c1
Query block: Sequence the entries by pIC50, beginning with the highest number. // list labels; follow requested order
Result block: 2, 3, 1
(2: 7.74, 3: 6.03, 1: 5.43)

1: COc1cc2c(cnn2-c2ccc(F)cc2)cc1C1(Cc2ccccc2)CCN(S(=O)(=O)C2CC2)C1 (stereo not drawn)
2: Cc1cc2c(cnn2-c2ccc(=O)n(C)c2)cc1C1(Cc2ccccc2)CCN(S(=O)(=O)c2cnccc2Cl)C1 (stereo not drawn)
3: [2H]C([2H])([2H])n1ncc(S(=O)(=O)N2CCC(Cc3ccccc3)(c3cc4cnn(-c5ccc(=O)n(C)c5)c4cc3C)C2)n1 (stereo not drawn)
4: Cc1cc2c(cnn2-c2ccc(F)cc2)cc1C1(Cc2cccnc2)CCN(S(C)(=O)=O)C1 (stereo not drawn)
5: C[C@@H]1CN(c2ccc3c(cnn3-c3ccc(F)cc3)c2)CCN1S(=O)(=O)c1cnn(C)c1
Query block: Sequence the entries by pIC50, beginning with the highest number. // list labels; follow requested order
Result block: 2, 3, 1, 4, 5

a: Cc1cc2c(cnn2-c2ccc(=O)n(C)c2)cc1C1(Cc2ccccc2)CCN(C(=O)c2ccsc2)C1 (stereo not drawn)
b: CCCn1cc(S(=O)(=O)N2CC=C(c3ccc4c(cnn4-c4ccc(F)cc4)c3)CC2)cn1
c: Cc1cc2c(cnn2-c2ccc(F)cc2)cc1C1CCN(C(=O)NC(C)C)CC1
Query block: Sequence the entries by pIC50, beginning with the highest number. // list labels; follow requested order
Result block: a, c, b
